Known MIC of a selection of molecules
System: Salmonella typhimurium 420
Experiment: In vitro MIC, dilution of a liquid medium
Type: cell-based
Details: Salmonella enterica, 24 h, read-out: minimum inhibiting concentration (MIC)
Give just the number in µg/mL; leave the unit off.

molecule="CCOC(=O)CO/N=C(\\C(=O)NC1C(=O)N2C(C(=O)O)=C(COC(C)=O)CS[C@H]12)c1csc(N)n1 (stereo partly shown)" reading_unit=µg/mL assay_result=1

MIC lookup needed for CC(=O)OCC1=C(C(=O)O)N2C(=O)C(NC(=O)/C(=N\OCC#N)c3csc(N)n3)C2SC1 (stereo not shown) , thanks.
0.5

Fill in the blank: the reported MIC of CC(=O)OCC1=C(C(=O)O)N2C(=O)C(NC(=O)/C(=N\OCC(N)=O)c3csc(N)n3)[C@H]2SC1 (stereo partly shown) is ____.
0.2

Any idea what its MIC is? The molecule is CC(=O)OCC1=C(C(=O)O)N2C(=O)C(NC(=O)/C(=N\OCC(=O)O)c3csc(N)n3)[C@H]2SC1 (stereo partly shown)
0.2

----------
Test system: Bacillus subtilis ATCC 6 633
Experiment: In vitro MIC, dilution of a liquid medium
Type: cell-based
Conditions: ATCC6, 48 H, 37° C., read-out: minimum inhibiting concentration (MIC)
Description: The method used was a dilution of a liquid medium where a series of tubes received the same quantity of a sterile nutritive media and increasing doses of the test compounds were placed therein. Then each tube was seeded with a bacterial strain and was incubated for 24 or 48 hours at 37° C. in an oven. The increasing inhibition was determined by transillumination to determine the minimum inhibiting concentration (MIC in μg/ml) and the results are reported in the following Tables.
# MIC listing for each entry below

// solved cases for MIC follow
compound="CC(=O)OCC1=C(C(=O)O)N2C(=O)C(NC(=O)/C(=N\\OCC#N)c3csc(N)n3)C2SC1 (stereo not shown)" assay_result="1 µg/mL"
compound="CC(=O)OCC1=C(C(=O)O)N2C(=O)C(NC(=O)/C(=N\\OCC(N)=O)c3csc(N)n3)[C@H]2SC1 (stereo partly shown)" assay_result="1 µg/mL"
compound="CCOC(=O)CO/N=C(\\C(=O)NC1C(=O)N2C(C(=O)O)=C(COC(C)=O)CS[C@H]12)c1csc(N)n1 (stereo partly shown)" assay_result="5 µg/mL"

Continue with the next compound.
Reported MIC for CC(=O)OCC1=C(C(=O)O)N2C(=O)C(NC(=O)/C(=N\OC(C)(C)C(=O)O)c3csc(N)n3)[C@H]2SC1 (stereo partly shown) : what is it?
> 40 µg/mL

----------
Listed next: entries and their corresponding MIC.
Test system: Staphylococcus aureus UC 1 128 Penicillin-resistant
Assay: In vitro MIC, dilution of a liquid medium
Format: cell-based
Settings: UC1, 48 H, 37° C., read-out: minimum inhibiting concentration (MIC)
Just the number please, in µg/mL, no unit attached.

compound="CC(=O)OCC1=C(C(=O)O)N2C(=O)C(NC(=O)/C(=N\\OCC(N)=O)c3csc(N)n3)[C@H]2SC1 (some centres unmarked)" assay_result=5
compound="CC(=O)OCC1=C(C(=O)O)N2C(=O)C(NC(=O)/C(=N\\OC(C)(C)C(=O)O)c3csc(N)n3)[C@H]2SC1 (some centres unmarked)" assay_result=40
compound="CC(=O)OCC1=C(C(=O)O)N2C(=O)C(NC(=O)/C(=N\\OCC#N)c3csc(N)n3)C2SC1 (centres unmarked)" assay_result=3
compound="CC(=O)OCC1=C(C(=O)O)N2C(=O)C(NC(=O)/C(=N\\OCC(=O)O)c3csc(N)n3)[C@H]2SC1 (some centres unmarked)" assay_result=20

Now, please, on to the next compound.
Using the record for CCOC(=O)CO/N=C(\C(=O)NC1C(=O)N2C(C(=O)O)=C(COC(C)=O)CS[C@H]12)c1csc(N)n1 (some centres unmarked) , report its MIC.
3

----------
System: Staphylococcus aureus ATCC 6 538 Penicillin-Sensitive
Experiment: In vitro MIC, dilution of a liquid medium
Type: cell-based
Conditions: ATCC6, 48 H, 37° C., read-out: minimum inhibiting concentration (MIC)
Measured MIC by item
Please state the figure in µg/mL; there is no need to write the unit.

compound="CC(=O)OCC1=C(C(=O)O)N2C(=O)C(NC(=O)/C(=N\\OCC#N)c3csc(N)n3)C2SC1 (centres unmarked)" test_system="Staphylococcus aureus ATCC 6 538 Penicillin-Sensitive" assay_result=2
compound="CC(=O)OCC1=C(C(=O)O)N2C(=O)C(NC(=O)/C(=N\\OCC(=O)O)c3csc(N)n3)[C@H]2SC1 (some centres unmarked)" test_system="Staphylococcus aureus ATCC 6 538 Penicillin-Sensitive" assay_result=10
compound="CC(=O)OCC1=C(C(=O)O)N2C(=O)C(NC(=O)/C(=N\\OC(C)(C)C(=O)O)c3csc(N)n3)[C@H]2SC1 (some centres unmarked)" test_system="Staphylococcus aureus ATCC 6 538 Penicillin-Sensitive" assay_result=20

What measured MIC is associated with CC(=O)OCC1=C(C(=O)O)N2C(=O)C(NC(=O)/C(=N\OCC(N)=O)c3csc(N)n3)[C@H]2SC1 (some centres unmarked) on Staphylococcus aureus ATCC 6 538 Penicillin-Sensitive?
3

Identify the measured MIC of CCOC(=O)CO/N=C(\C(=O)NC1C(=O)N2C(C(=O)O)=C(COC(C)=O)CS[C@H]12)c1csc(N)n1 (some centres unmarked) for Staphylococcus aureus ATCC 6 538 Penicillin-Sensitive.
5

----------
Tested on: Escherichia Coli Resistant Tetracycline ATCC 11 303
Experiment: In vitro MIC, dilution of a liquid medium
Format: cell-based
Conditions: ATCC11, 24 H, 37° C., read-out: minimum inhibiting concentration (MIC)
Property label: MIC (µg/mL)
Provide only the numeric value, understood in µg/mL.

Could you tell me which MIC is on file for CCOC(=O)CO/N=C(\C(=O)NC1C(=O)N2C(C(=O)O)=C(COC(C)=O)CS[C@H]12)c1csc(N)n1 (some centres unmarked) ?
0.5

----------
MIC: recorded values
Test system: Escherichia Coli Exp. TO26 B6
Assay: In vitro MIC, dilution of a liquid medium
Format: cell-based
Settings: 48 H, 37° C., read-out: minimum inhibiting concentration (MIC)
Numeric answer only, unit µg/mL assumed.

// worked examples, MIC included
compound="CC(=O)OCC1=C(C(=O)O)N2C(=O)C(NC(=O)/C(=N\\OCC(=O)O)c3csc(N)n3)[C@H]2SC1 (some centres unmarked)" property_label=MIC reading_unit=µg/mL assay_result=0.1
compound="CC(=O)OCC1=C(C(=O)O)N2C(=O)C(NC(=O)/C(=N\\OCC(N)=O)c3csc(N)n3)[C@H]2SC1 (some centres unmarked)" property_label=MIC reading_unit=µg/mL assay_result=0.1
compound="CC(=O)OCC1=C(C(=O)O)N2C(=O)C(NC(=O)/C(=N\\OCC#N)c3csc(N)n3)C2SC1 (centres unmarked)" property_label=MIC reading_unit=µg/mL assay_result=0.2

Please report the recorded MIC for CCOC(=O)CO/N=C(\C(=O)NC1C(=O)N2C(C(=O)O)=C(COC(C)=O)CS[C@H]12)c1csc(N)n1 (some centres unmarked) .
1

Given CC(=O)OCC1=C(C(=O)O)N2C(=O)C(NC(=O)/C(=N\OC(C)(C)C(=O)O)c3csc(N)n3)[C@H]2SC1 (some centres unmarked) , state its recorded MIC.
0.5

----------
Each entry below carries its reported MIC.
Test system: Providencia Du 48
Experiment: In vitro MIC, dilution of a liquid medium
Format: cell-based
Conditions: DU48, 24 H, 37° C., read-out: minimum inhibiting concentration (MIC)

molecule="CC(=O)OCC1=C(C(=O)O)N2C(=O)C(NC(=O)/C(=N\\OCC(=O)O)c3csc(N)n3)[C@H]2SC1 (some centres unmarked)" assay_result="1 µg/mL"
molecule="CC(=O)OCC1=C(C(=O)O)N2C(=O)C(NC(=O)/C(=N\\OCC(N)=O)c3csc(N)n3)[C@H]2SC1 (some centres unmarked)" assay_result="5 µg/mL"
molecule="CCOC(=O)CO/N=C(\\C(=O)NC1C(=O)N2C(C(=O)O)=C(COC(C)=O)CS[C@H]12)c1csc(N)n1 (some centres unmarked)" assay_result="5 µg/mL"
molecule="CC(=O)OCC1=C(C(=O)O)N2C(=O)C(NC(=O)/C(=N\\OCC#N)c3csc(N)n3)C2SC1 (centres unmarked)" assay_result="5 µg/mL"

# evaluate next
# get_value(readout='MIC', item= CC(=O)OCC1=C(C(=O)O)N2C(=O)C(NC(=O)/C(=N\OC(C)(C)C(=O)O)c3csc(N)n3)[C@H]2SC1 (some centres unmarked) )
2 µg/mL

----------
molecules and their reported MIC
Tested on: Klebsiella pneumoniae Exp. 52 145
Assay: In vitro MIC, dilution of a liquid medium
Type: cell-based
Conditions: EXP.52145, 48 H, 37° C., read-out: minimum inhibiting concentration (MIC)
Hi! Could you send only the number? It should be in µg/mL, unit omitted.

Record request: MIC value, item CCOC(=O)CO/N=C(\C(=O)NC1C(=O)N2C(C(=O)O)=C(COC(C)=O)CS[C@H]12)c1csc(N)n1 (stereo partly shown)
0.2

Find the recorded MIC belonging to CC(=O)OCC1=C(C(=O)O)N2C(=O)C(NC(=O)/C(=N\OCC#N)c3csc(N)n3)C2SC1 (stereo not shown) and report it.
0.05

Bench note: what MIC did CC(=O)OCC1=C(C(=O)O)N2C(=O)C(NC(=O)/C(=N\OCC(N)=O)c3csc(N)n3)[C@H]2SC1 (stereo partly shown) show?
0.05

Any idea what its MIC is? The molecule is CC(=O)OCC1=C(C(=O)O)N2C(=O)C(NC(=O)/C(=N\OC(C)(C)C(=O)O)c3csc(N)n3)[C@H]2SC1 (stereo partly shown)
1
